# Test system: UACC-257
# TEST NAME: NCI tumour cell line growth inhibition, 48 h
Calls of active or inactive are those of the source. Cut-off read from the data, not from the text of the source: active = GI50 up to about 1.1 µM and inactive = higher.
MEASURE NAME: GI50

Known results for compounds:
CCOC(=O)C1=C(C)N2CCOC2(C)C(C(=O)OC)C1c1cccc(Cl)c1 (centres undefined)
> 100 µM (inactive)
CC(=O)Nc1ccc(-c2nc3ccccc3s2)cc1Br
> 100 µM (inactive)
Cc1ccc(C(=O)Nc2ccc(CP(=O)(O)O)cc2CP(=O)(O)O)cc1NC(=O)Nc1cc(C(=O)Nc2ccc(CP(=O)(O)O)cc2CP(=O)(O)O)ccc1C
> 100 µM (inactive)

Okay, now this compound:
Give the measured GI50 of COc1ccc(/C=N\NC(=O)Nc2cccc3ccccc23)cc1 .
34.9 µM (inactive)

---

# System: OVCAR-4
# TEST NAME: NCI tumour cell line growth inhibition, 48 h
Active and inactive are the calls of the source. No stated cut-off is given here; in the data, active = GI50 up to about 1.1 µM and inactive = higher.
MEASURE NAME: GI50

Known results for compounds:
COc1cc(C2OC[C@@H]3C(=O)OC[C@H]23)cc(O)c1OC (stereo partly drawn)
> 100 µM (inactive)
CN(C)CCS/C(=N\c1ccccc1)N1CCCCC1
19.1 µM (inactive)
Nc1nc(Nc2ccccc2)sc1C(=O)c1ccco1
19.9 µM (inactive)
COc1ccc(N2C(=O)C3c4[nH]c5ccc(F)cc5c4C4CCC(C(C)(C)C)CC4C3C2=O)cc1 (stereo not drawn)
6.05 µM (inactive)

Give the measured GI50 of Cn1cccc1/C=C/c1cc(Br)c(/C=C/c2cccn2C)cc1Br .
5.4 µM (inactive)

Give the measured GI50 of CCN(CC)CCN1C=CC(C)C(C(=O)O)C1C(N)=O (stereo not drawn) .
> 100 µM (inactive)

Give the measured GI50 of O=[N+]([O-])c1ccc(S[C@@H]2[C@H]3c4c(-c5ccccc5)[nH]c(-c5ccccc5)c4[C@@H]2C[C@H]3Cl)cc1 .
1.6 µM (inactive)

Give the measured GI50 of O=C1CCCC2=C1CC1=C(CCCC1=O)N2c1ccc([N+](=O)[O-])cc1 .
> 100 µM (inactive)

Give the measured GI50 of N=C(N)N/N=C/c1cc(Cl)cc(Cl)c1O .
46.9 µM (inactive)

---

# Test system: KM12
# TEST NAME: NCI tumour cell line growth inhibition, 48 h
Calls of active or inactive are those of the source. No stated cut-off is given here; in the data, active = GI50 up to about 1.1 µM and inactive = higher.
MEASURE NAME: GI50

COc1ccc(C(=O)C(C(=O)CCC(=O)Nc2cccc(Cl)c2)c2ccc(OC)cc2)cc1 (configuration not stated)
> 100 µM (inactive)
Cc1ccc(/C=C/C(=O)c2ccc(Cl)c(Cl)c2)cc1
> 100 µM (inactive)
NCC(O)CNC(=O)c1ccc(-c2ccc(-c3ccc(C(=O)NCC(O)CN)cc3)o2)cc1 (configuration not stated)
51.2 µM (inactive)
CCOC(=O)c1cc(C(=O)O)c(=O)n2c1[nH]c1ccccc12
> 100 µM (inactive)

Give the measured GI50 of CCOC(=O)C1=C(C)N(NC(=O)Nc2ccccc2)C2(N)N(NC(=O)Nc3ccccc3)C(C)=C(C(=O)OCC)C12C(=O)OCC (configuration not stated) .
> 100 µM (inactive)

Give the measured GI50 of CCOC(=O)c1nc2ccc(C(F)(F)F)cc2nc1Nc1ccc(OC)c(OC)c1 .
> 100 µM (inactive)

Give the measured GI50 of O[C@H]1[C@@H]2OC[C@@H](O)[C@H](OCc3ccccc3)[C@@](COCc3ccccc3)(O2)[C@@H]1OCc1ccccc1 .
17.2 µM (inactive)

---

The following molecules are listed with their measured GI50 values.
# Test system: SK-MEL-28
# TEST NAME: NCI tumour cell line growth inhibition, 48 h
Active and inactive are the calls of the source. Rule as the data show it: active = GI50 up to about 1.1 µM and inactive = higher.

Known results for molecules:
c1ccc2c(c1)[nH]c1c3ccccc3sc21
> 100 µM (inactive)
CC/C(Cl)=N\OC(=O)Nc1ccc(OC)cc1
6.71 µM (inactive)

Give the measured GI50 of Cc1ccc(C2SCC(=O)N2c2ccc(-n3c(-c4ccccc4)nc4ccccc4c3=O)cc2)cc1 (stereo unspecified) .
21 µM (inactive)

Give the measured GI50 of NC(=S)NNCC(=O)CC(O)(C(F)(F)F)C(F)(F)Cl (stereo unspecified) .
> 100 µM (inactive)

Give the measured GI50 of O=C(c1ccco1)N(C(=S)OC12CC3CC(CC(C3)C1)C2)c1ccccc1 .
37.9 µM (inactive)

Give the measured GI50 of C/C(=N\NC(=S)N1CCC(C2CCN(C(=S)N/N=C(\C)c3ccccn3)CC2)CC1)c1ccccn1 .
> 100 µM (inactive)

Give the measured GI50 of N/C(=N\O)N/N=C/c1cccc(F)c1 .
> 100 µM (inactive)

Give the measured GI50 of Cc1ccc(S(=O)(=O)OC(c2ccc(Cl)cc2Cl)C2OC(=O)c3ccccc32)cc1 (stereo unspecified) .
> 100 µM (inactive)

Give the measured GI50 of O=C(O)C/C=C/CC(=O)O .
> 100 µM (inactive)

Give the measured GI50 of C[n+]1cc2cc(O)c(O)cc2c2ccc3cc(O)c(O)cc3c21.c1ccncc1 .
4.66 µM (inactive)

Give the measured GI50 of Cc1sccc1C(=S)Nc1ccc(Cl)c(/C=N/OC(C)(C)C)c1 .
26.6 µM (inactive)

---

The following compounds are listed with their measured GI50 values.
# System: HT-29
# TEST NAME: NCI tumour cell line growth inhibition, 48 h
Active and inactive are the calls of the source. No stated cut-off is given here; in the data, active = GI50 up to about 1.1 µM and inactive = higher.

Known results for compounds:
Cc1ccc(-c2cc(-c3ccccc3)c(C#N)c(=O)[nH]2)cc1
> 100 µM (inactive)
O=C(Nc1ccc2oc(=O)c(C(=O)O)cc2c1)Oc1ccccc1
> 100 µM (inactive)
Cc1ccc2c3c(cnc2n1)C(=O)OCCN3C
> 100 µM (inactive)
O=c1c2cc([N+](=O)[O-])cnc2sn1-c1ccc([N+](=O)[O-])cc1
21.8 µM (inactive)

Give the measured GI50 of CCOP(=O)(OCC)C(C)(CC)NC (stereo not given) .
> 100 µM (inactive)

Give the measured GI50 of Cn1c(=O)c2c(nc3n2CC(C(=O)O)N3)n(C)c1=O (stereo not given) .
> 100 µM (inactive)

Give the measured GI50 of COc1ccc(S(=O)(=O)Nc2ccccc2C(=O)O)cc1 .
> 100 µM (inactive)

Give the measured GI50 of CN(C)c1ccc(/C=C2\C[C@H]3[C@@H]4CC=C5C[C@@H](O)CC[C@]5(C)[C@H]4CC[C@]3(C)C2=O)cc1 .
16.3 µM (inactive)

Give the measured GI50 of O=C1C2C3C=C4c5ccccc5N(c5ccccc5)C4(C2C(=O)N1c1ccccc1)C1C(=O)N(c2ccccc2)C(=O)C31 (stereo not given) .
6.56 µM (inactive)

Give the measured GI50 of COC(=O)C1CCC(=S)N1C(C)=O (stereo not given) .
> 100 µM (inactive)

---

# System: SF-539
# TEST NAME: NCI tumour cell line growth inhibition, 48 h
Activity calls are given as the source filed them. Rule as the data show it: active = GI50 up to about 1.1 µM and inactive = higher.
In this exercise, the only acceptable responses are active, inactive

Examples with answers:
CCOC(=O)C1=C(C)N2CCOC2(C)C(C(=O)OC)C1c1cccc(Cl)c1 (configuration not stated)
inactive
Cc1[nH]c2ccccc2c1C1Cc2ccccc2N1C(=O)/C=C\C(=O)O (configuration not stated)
inactive
COC(=O)/C=C1/OC(c2ccccc2)=C(Cl)C1=O
inactive
O=C(O)c1ccccc1/N=N/c1c(O)c(S(=O)(=O)O)cc2cc(S(=O)(=O)O)ccc12
inactive
Nc1[nH]c(=O)[nH]c(=O)c1Cc1cccc(Cl)c1
inactive

What did the test return for NCCCCNOCCCN ?
inactive

What did the test return for NC(=S)NNCC(=O)CC(O)(C(F)(F)F)C(F)(F)Cl (configuration not stated) ?
inactive

What did the test return for COc1ccc(NCc2cc(OC)cc(OC)c2)cc1 ?
inactive

What did the test return for COc1c(Cl)ccc(Cl)c1-c1nnc(-c2c(Cl)c(Cl)c(Cl)c(Cl)c2-c2nc3cc(C(=O)c4ccccc4)ccc3[nH]2)o1 ?
inactive

What did the test return for COc1ccc(N2C(=O)C3c4[nH]c5ccc(C)cc5c4C4CCC(C(C)(C)C)CC4C3C2=O)cc1 (configuration not stated) ?
inactive

What did the test return for Cc1ccc2nc(-c3ccccc3)c(N=O)n2c1 ?
inactive

---

# Tested on: SF-539
# TEST NAME: NCI tumour cell line growth inhibition, 48 h
Active and inactive are the calls of the source. No stated cut-off is given here; in the data, active = GI50 up to about 1.1 µM and inactive = higher.
The following molecules are listed with their measured GI50 values.

Give the measured GI50 of CCc1cccc(C)c1NC(=O)C(=O)CC(=O)c1ccc(Cl)s1 .
> 100 µM (inactive)

Give the measured GI50 of CC/C(Cl)=N\OC(=O)Nc1ccc(OC)cc1 .
4.89 µM (inactive)

Give the measured GI50 of CCOC(=O)c1csc(NC(=O)CN2CCCCC2)n1 .
> 100 µM (inactive)

Give the measured GI50 of CC(=O)O[C@H]1C#C/C=C\C#CC[C@@H]2C(=O)N(C(=O)OC(C)(C)C)[C@@H]12 .
1.67 µM (inactive)

Give the measured GI50 of CC(C)(C)C(=O)Oc1ccc(/C=C/C(=O)c2ccc(OC(=O)C(C)(C)C)cc2)cc1 .
33 µM (inactive)

The measured values listed here are drawn from ChEMBL document CHEMBL1201862.
